Values compiled from PubChem BioAssay AID1963977.

In this section we review reported viability, T/C values for a set of compounds.
- Test system: 624824-186-R-J3-PDC multicell spheroids, viability;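 also: luminescent signal used as a stand-in for spheroid viability; spheroids exposed to agents for seven days before luminescence read; percent viability relative to DMSO vehicle control wells taken as 100%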
- assay.info: Anticancer human tumor 624824-186-R-J3-PDC patient-derived colon adenocarcinoma cell line growth inhibition [PI3K]
- experimental.parameters: second compound 3.16 µM; first compound 0.1 µM; hits give low values
value.type: viability, T/C (%)

# compound, reading
data = [
    ("Cn1nccc1Nc1nccc(-c2ccn(C(CO)c3ccc(Cl)c(F)c3)c(=O)c2)n1 (centres undefined) + CC(Nc1ncnc2nc[nH]c12)c1cc2cccc(Cl)c2c(=O)n1-c1ccccc1", 88.1),
    ("CCN1CCN(Cc2ccc(Nc3ncc(F)c(-c4cc(F)c5nc(C)n(C(C)C)c5c4)n3)nc2)CC1 + CC(Nc1ncnc2nc[nH]c12)c1cc2cccc(Cl)c2c(=O)n1-c1ccccc1", 90.8),
    ("CC(C)NCC(C(=O)N1CCN(c2ncnc3c2C(C)CC3O)CC1)c1ccc(Cl)cc1 (centres undefined) + CC(Nc1ncnc2nc[nH]c12)c1cc2cccc(Cl)c2c(=O)n1-c1ccccc1", 89.7),
    ("CNC(=O)c1ccc(N2C(=S)N(c3ccc(C#N)c(C(F)(F)F)c3)C(=O)C2(C)C)cc1F + Cc1nc(NC(=O)N2CCCC2C(N)=O)sc1-c1ccnc(C(C)(C)C(F)(F)F)c1", 89.4),
]
